- Measurement Target: bovine folate binding protein (bFBP) (Bos taurus)
- Sequence (P02702 20-234): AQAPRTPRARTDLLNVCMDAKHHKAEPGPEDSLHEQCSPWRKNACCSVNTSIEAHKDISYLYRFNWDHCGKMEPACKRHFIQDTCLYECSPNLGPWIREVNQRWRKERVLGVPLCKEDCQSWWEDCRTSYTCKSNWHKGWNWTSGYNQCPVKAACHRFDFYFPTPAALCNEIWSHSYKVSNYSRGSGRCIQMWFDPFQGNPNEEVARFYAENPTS
pIC50: −log10 of the molar value.
Endpoint Name: pIC50

| Mol Smiles | Measurement Target | Measured Number |
| --- | --- | --- |
| CCCC(CCC)C(=O)O | bovine folate binding protein (bFBP) (Bos taurus) | 0.57 |
